Provide the recorded MIC for the entries that follow.
test system: E. faecalis ATCC 29212; assay: MIC against E. faecalis ATCC 29212; assay type: cell-based; conditions: Enterococcus faecalis, ATCC29212

CSC1O[C@H]([C@H](NC(=O)[C@H]2NC[C@@H]3C[C@H]4OC(C)(C)O[C@H]4CO[C@H]32)[C@H](C)Cl)C(O)[C@@H](O)[C@H]1O (stereo partly drawn) ... > 64 µg/mL

Hey, can you go through the list below and give me MIC for every item?
1. CSC1O[C@H]([C@H](NC(=O)[C@H]2NC[C@@H]3CC(NC4CC4)CCO[C@H]32)[C@H](C)Cl)C(O)[C@@H](O)[C@H]1O (stereo partly drawn)
2. CSC1O[C@H]([C@H](NC(=O)[C@H]2NC[C@@H]3CC(NCc4ccccc4F)CCO[C@H]32)[C@H](C)Cl)C(O)[C@@H](O)[C@H]1O (stereo partly drawn)

1. > 64 µg/mL
2. > 64 µg/mL
